Ref: ChEMBL document CHEMBL4513216

Parameter INHIBITION: see the listing below.
System: Plasmodium berghei
assay explanation: Screen against P. berghei liver stage (PbLuc), transformed with Luciferase, at 2uM
Assay type: functional, HepG2
settings: tested at 2 uM
In all, about 68,000 compounds went through this assay and about 2,700 (4%) showed an effect of 50% or more. For the sample, strong results were picked, then their nearest neighbours and some compounds at random.
Record the value in %, omitting the unit from your answer.

{"molecule": "COCc1nn(CC2CC2)c2c1CN(Cc1ccco1)CC2", "measurement target": "Plasmodium berghei", "INHIBITION [%]": 38.09}

Input: Entry under review: COc1ccc(NCCC(=O)NCc2cccnc2N(C)C)cc1 . Reported INHIBITION?
Output: 35.54

Input: I have this molecule here, COc1ccc(-c2noc([C@@H]3C[C@@H](O)CN3C3CCOCC3)n2)cc1 , and I need its recorded INHIBITION.
Output: 38.62

Input: Dear colleague, I am looking for the recorded INHIBITION of the following molecule: CN1C(=O)C2(CCN(CC3CC3)CC2)c2ccccc21
Output: 1.42

Input: Quick one: INHIBITION of Cc1cc(Cn2cc(C(C)Cc3ccc4c(c3)OCO4)nn2)n[nH]1 (configuration not stated) ?
Output: 49.88

Input: Can you share its INHIBITION? I mean this molecule: CN1C(=O)C2(CCN(CC3CCC3)C2)c2ccccc21 (configuration not stated)
Output: 19.05

Input: Tell me the measured INHIBITION of CN(Cc1ccc(Cl)s1)C(=O)NCCC(=O)N1CCCCCC1 , please.
Output: -12.84

Input: Please give the measured INHIBITION for this molecule: O=C(C1CCCC1)N1CCOC(c2nc(-c3ncccn3)no2)C1 (configuration not stated)
Output: 22.81

Input: Please look up its INHIBITION: OCCOCc1n[nH]c2c1CN(Cc1cccs1)C2
Output: 52.74

Input: Record request: INHIBITION value, item c1ccc(OCc2n[nH]c3c2CN(Cc2cccs2)C3)nc1
Output: 29.45

Input: Given OCCOCc1n[nH]c2c1CN(Cc1ccco1)C2 , state its recorded INHIBITION.
Output: 8.99

Input: For the molecule Clc1ccc(OCCCN2CCOC(Cn3cncn3)C2)cc1 (configuration not stated) , what INHIBITION is on record?
Output: 9.17

----------
# Lookup of reported INHIBITION keyed by entry
System: Plasmodium berghei
assay explanation: Screen against P. berghei liver stage (PbLuc), transformed with Luciferase, at 2uM
Format: functional, HepG2
settings: tested at 2 uM
The campaign covered roughly 68,000 compounds. About 2,700 (4%) showed an effect of 50% or more. Only a selection was taken, and strong results are over-represented in it overall.
Reply with just the number (in %).

{"compound": "Cc1cnc(N2CCc3c(CNc4ccnc(C)n4)cncc3C2)nc1", "units of measure": "%", "INHIBITION": -25.4}
{"compound": "Cc1cc(C)n(C2CN(CCc3ccccn3)C2)n1", "units of measure": "%", "INHIBITION": -7.32}
{"compound": "Cc1nc2ccnn2c(C)c1CCC(=O)N1CCN(C2CC2)CC1", "units of measure": "%", "INHIBITION": 26.4}
{"compound": "c1csc(-c2noc(C3CNC3)n2)c1", "units of measure": "%", "INHIBITION": 5.98}
{"compound": "COCCn1/c(=N\\C(=O)CN(C)S(C)(=O)=O)sc2cc(C)ccc21", "units of measure": "%", "INHIBITION": 29.19}

Input: Param item = COc1ccc(F)cc1C(=O)N1CC(c2ccncc2)C1 ; retrieve measured INHIBITION.
Output: -26.81

Input: Any idea what INHIBITION was measured for COc1cc2c(cc1C(=O)N1CC(c3ccncc3)C1)CCC2 ?
Output: 51.96
